The measurements presented in this section are drawn from patent US20250250357A1.

OD450: recorded values
# target.or.test.system: T1, human MSLN-R3 protein (human, UniProt Q13421 487-598)
# T1 construct: also called hMSLN-R3
# T1 sequence (Q13421 495-606, form in doubt): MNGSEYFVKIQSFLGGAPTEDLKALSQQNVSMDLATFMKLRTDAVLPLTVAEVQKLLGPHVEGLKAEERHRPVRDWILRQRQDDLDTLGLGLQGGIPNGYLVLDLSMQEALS
# protocol.notes: ELISA on coated antigen, antibody 0.1 nM
Write down the numeric answer in OD450 and omit the unit.

The examples below pair each entry with its known result.
Qu. Specify OD450 for F7.33.24 (scFv, not shown: small tags and cut ends, also called S009-F7.33.24 (parental variable regions, in the humanized-antibody ELISA)) scFv: QVQLQQPGTELVKPGASVKLSCKASGYTFTSYWMHWVKQRPGQGLEWIGNVNPSNGGSNYNEKFKNKATLTVDKSSSTADMQLNSLTSEDSAVYYCAPHYIGSRPGFAYWGQGTLVTVSGGGGGSGGGGSGGGGSDIVMTQSQKFMSTSVGDRVSVTCKASQNVGTNIAWYQQKPGQSPKALIYSASYRYSGVPDRFTGSGSGTDFTLTITNVQSEDLAEYFCQQYNSYPLTFGGGTKVEIK and stop.
Ans. 0.09

Qu. Specify OD450 for Tab111 (scFv, not shown: small tags and cut ends, also called YP218 VL-(G4S)3-VH-his antibody; positive control) scFv: DVVMTQTPASVSEPVGGTVTIKCQASQRISSYLSWYQQKPGQRPKLLIFGASTLASGVPSRFKGSGSGTEYTLTISDLECADAATYYCQSYAYFDSNNWHAFGGGTEVVVGGGGSGGGGSGGGGSQQQLEESGGGLVKPEGSLTLTCKASGFDLGFYFYACWVRQAPGKGLEWIACIYTAGSGSTYYASWAKGRFTISKASSTTVTLQMTSLAAADTATYFCARSTANTRSTYYLNLWGPGTLVTVSS and stop.
Ans. 0.09

Please look at the following binder next.
Qu. Specify OD450 for F7.33.24-H11 (scFv, not shown: small tags and cut ends, also called S009-F7.33.24 humanized antibody VH2a + VL2) scFv: EVQLVQSGAEVKKPGASVKVSCKASGYTFTSYWMHWVRQAPGQGLEWMGNVNPSNAGSNYNEKFKNRVTITVDKSASTAYMELSSLRSEDTAVYYCAPHYIGSRPGFAYWGQGTLVTVSSGGGGSGGGGSGGGGSDIVMTQTPLSLSVTPGQPASISCKASQNVGTNIAWYLQKPGQSPQALIYSASYRYSGVPDRFSGSGSGTDFTLKISRVEAEDVGVYYCQQYNSYPLTFGGGTKVEIK and stop.
Ans. 0.09
